Experiment: pKa values
Assay type: physicochemical
Settings: third of three pKa values; read-out: pKa value (third printed)
test readout: pKa
Format: numeric value only, no unit, no commentary.

Exam item: What value of measured pKa is listed for CN(C)c1ccc(O)c2c1C[C@H]1C[C@H]3[C@H](N(C)C)C(O)=C(C(N)=O)C(=O)[C@@]3(O)C(O)=C1C2=O ?
Marked response: 9.2

----------
Test: pKa values
Type: physicochemical
Conditions: first of three pKa values; read-out: pKa value (first given)
test readout: pKa
Format: numeric value only, no unit, no commentary.

Exam item: What value of measured pKa is listed for CN(C)c1ccc(O)c2c1C[C@H]1C[C@H]3[C@H](N(C)C)C(O)=C(C(N)=O)C(=O)[C@@]3(O)C(O)=C1C2=O ?
Marked response: 3.5

----------
Assay: pKa values
Format: physicochemical
Conditions: second of three pKa values; read-out: pKa value
test readout: pKa
Format: numeric value only, no unit, no commentary.

Exam item: What value of measured pKa is listed for CN(C)c1ccc(O)c2c1C[C@H]1C[C@H]3[C@H](N(C)C)C(O)=C(C(N)=O)C(=O)[C@@]3(O)C(O)=C1C2=O ?
Marked response: 7.6
